B1: mRNA-splicing (parent)
chain: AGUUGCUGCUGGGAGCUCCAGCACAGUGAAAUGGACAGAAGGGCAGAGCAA

variants of: B1; test: exon inclusion enrichment index; higher = more inclusion; WT1 exon 5 minigene, HEK293
endpoint: exon inclusion enrichment index
Enter the number alone.

Please review the entries below; each comes with its answer.
| mutation string | exon inclusion enrichment index |
| --- | --- |
| G5A C6U U7A G8U C9A A47G G48A | 0.0214 |
| G5C C6U G8C C9U U10C C44A A45G | 2.98 |
| G2A G5A U7C G8A U10C | 3.39 |
| G5C C6G U7C U10C G43U C44A | 0.0721 |
| G5U G8U C9U G33C G34A | 0.0575 |
| G5A C6G U7G C9A A23G C24A | 0.00158 |
| G2C C6A U7A C9A U10A | 0.788 |
| G5A C6G U7G G8A C9A | 0.00786 |

Summary for this variant, G26C U27C : exon inclusion enrichment index is 0.584

Query G5C C6G U7C U10C G41A G42A yields exon inclusion enrichment index of 2.54

Field exon inclusion enrichment index (entry G5A U7C G8A U10C G11U G12U ) reads 0.337

exon inclusion enrichment index for G5A C6G U7G C9A G42A G43C is 0.0943

Sample G5C C6G U7C U10C G26U U27C ; exon inclusion enrichment index observed: 4.3
